SYSTEM: Alpha2Beta2 (Rattus norvegicus, UniProt P12389+P12390)
Construct: purchased NIMH Psychoactive Drug Screening Program (PDSP)
Sequence (P12389 28-511): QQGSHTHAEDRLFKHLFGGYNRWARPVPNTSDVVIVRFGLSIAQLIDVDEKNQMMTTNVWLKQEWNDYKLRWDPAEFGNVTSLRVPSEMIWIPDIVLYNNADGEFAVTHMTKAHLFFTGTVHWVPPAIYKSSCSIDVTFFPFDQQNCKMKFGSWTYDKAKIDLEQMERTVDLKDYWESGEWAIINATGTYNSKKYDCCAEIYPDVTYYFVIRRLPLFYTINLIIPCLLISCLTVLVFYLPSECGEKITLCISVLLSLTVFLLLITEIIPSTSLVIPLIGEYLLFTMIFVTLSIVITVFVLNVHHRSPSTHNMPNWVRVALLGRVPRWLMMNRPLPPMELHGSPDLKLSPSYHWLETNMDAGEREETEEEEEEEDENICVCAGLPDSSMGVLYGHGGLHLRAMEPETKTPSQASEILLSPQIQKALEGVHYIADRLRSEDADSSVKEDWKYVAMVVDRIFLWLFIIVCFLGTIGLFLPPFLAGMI
Sequence (P12390 25-500): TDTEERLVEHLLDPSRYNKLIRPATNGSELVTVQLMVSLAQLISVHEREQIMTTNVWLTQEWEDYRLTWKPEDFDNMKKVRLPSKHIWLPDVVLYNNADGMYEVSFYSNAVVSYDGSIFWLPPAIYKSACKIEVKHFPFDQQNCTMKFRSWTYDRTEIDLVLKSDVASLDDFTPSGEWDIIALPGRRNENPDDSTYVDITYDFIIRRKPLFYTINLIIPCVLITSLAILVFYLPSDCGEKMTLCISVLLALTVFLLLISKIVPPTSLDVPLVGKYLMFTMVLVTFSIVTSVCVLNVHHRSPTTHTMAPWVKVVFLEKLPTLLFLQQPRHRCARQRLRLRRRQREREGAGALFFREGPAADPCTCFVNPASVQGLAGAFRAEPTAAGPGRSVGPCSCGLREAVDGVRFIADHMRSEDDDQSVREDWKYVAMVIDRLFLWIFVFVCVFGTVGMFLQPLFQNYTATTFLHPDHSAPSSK
EXPERIMENT DESCRIPTION: PDSP primary binding Alpha2Beta2
TEST PARAMETERS: primary binding, 10,000 nM; last figure of the line = mean of the 4 before it; read-out: Alpha2Beta2, PDSP raw data, mean
REPORTED ENDPOINT: inhibition at 10 µM (%)
One number for each entry, in %.

| SMILES NOTATION | SYSTEM | inhibition at 10 µM (%) |
| --- | --- | --- |
| CCc1noc(-c2ncn3c2[C@@H](C)N=C(c2ccccc2F)c2cc(-c4ccccc4)ccc2-3)n1 | Alpha2Beta2 (Rattus norvegicus, UniProt P12389+P12390) | 4.18 |
| CC(C)c1noc(-c2ncn3c2[C@@H](C)N=C(c2ccccc2F)c2cc(Cl)ccc2-3)n1 | Alpha2Beta2 (Rattus norvegicus, UniProt P12389+P12390) | 3.29 |
| C#Cc1ccc2c(c1)C(c1ccccc1Cl)=N[C@H](C)c1c(C(=O)NC)ncn1-2 | Alpha2Beta2 (Rattus norvegicus, UniProt P12389+P12390) | 3.88 |
| C#Cc1ccc2c(c1)C(c1ccccc1F)=N[C@H](C)c1c(C(=S)N(C)C)ncn1-2 | Alpha2Beta2 (Rattus norvegicus, UniProt P12389+P12390) | -5.95 |
| C#Cc1ccc2c(c1)C(c1ccccn1)=N[C@@H](C)c1c(C(=O)N(C)C)ncn1-2 | Alpha2Beta2 (Rattus norvegicus, UniProt P12389+P12390) | -2.25 |
| C#Cc1ccc2c(c1)C(c1ccccc1Cl)=N[C@H](C)c1c(C(=O)N(C)CC)ncn1-2 | Alpha2Beta2 (Rattus norvegicus, UniProt P12389+P12390) | -2.89 |

# batch size: 2; output inhibition at 10 µM per entry
1. CCc1noc(-c2ncn3c2[C@@H](C)N=C(c2ccccc2F)c2cc(Cl)ccc2-3)n1
2. C[C@H]1N=C(c2ccccc2F)c2cc(-c3ccccc3)ccc2-n2cnc(C(=O)N(C)C)c21

Result:
1. -6.7
2. -5.95
